Target: T1, phospho-MOB1(K104E/K105E), full length, recombinant (human, UniProt Q9H8S9 1-216, K104E | K105E, phosphorylated in vitro by MST2 (residues 2-308); the paper names Thr12 and Thr35 as the MST1/2 phosphorylation sites of MOB1)
T1 construct: human MOB1A, full length; source: E. coli, purified (Ni-NTA), then phosphorylated in vitro by MST2 (2-308)
T1 sequence (looked up): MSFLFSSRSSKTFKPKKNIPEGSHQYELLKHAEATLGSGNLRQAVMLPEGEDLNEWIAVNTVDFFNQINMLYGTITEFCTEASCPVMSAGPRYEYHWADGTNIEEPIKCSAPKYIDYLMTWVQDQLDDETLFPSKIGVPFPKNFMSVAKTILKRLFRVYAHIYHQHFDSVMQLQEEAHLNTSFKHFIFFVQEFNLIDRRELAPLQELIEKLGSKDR
Assay: ITC; 25 °C, ITC200; 25 mM HEPES pH 7.5, 200 mM NaCl, 1 mM EDTA; ~240 μM MOB1A injected (20 x 2 μl) into ~24 μM NDR1, NDR2, LATS1 or LATS2 fragment in the cell; single-site model
Conditions: both partners purified
Recorded metric: binding result

Binder | Data value
human NDR2 (residues 25-88), N-terminal regulatory domain (NTR) (domain or fragment, UniProt Q9Y2H1 25-88, looked up, human NDR2, residues 25-88 (NTR); also called NDR2 (25-88); NTR of NDR2; source: E. coli BL21(DE3), purified (Ni-NTA)) KLTLENFYSNLILQHEERETRQKKLEVAMEEEGLADEEKKLRRSQHARKETEFLRLKRTRLGLD | binds
LATS2 (603-666, V610Y) (domain or fragment, human, UniProt Q9NRM7 603-666, looked up, human LATS2, residues 603-666 (NTR), codon-optimized synthetic gene; also called LATS2(V610Y); source: E. coli BL21(DE3), purified (Ni-NTA)) KFFMEQHYENVIKTYQQKVNRRLQLEQEMAKAGLCEAEQEQMRKILYQKESNYNRLKRAKMDKS | binds
human NDR1 (residues 24-87), NTR (domain or fragment, UniProt Q15208 24-87, looked up, human NDR1, residues 24-87 (NTR); also called NTR of NDR1; source: E. coli BL21(DE3), purified (Ni-NTA)) KVTLENFYSNLIAQHEEREMRQKKLEKVMEEEGLKDEEKRLRRSAHARKETEFLRLKRTRLGLE | binds
